Reported values of log10 IC50 for individual entries
Molecular target: SMYD3 (Homo sapiens (Human))
Sequence (Q9H7B4 whole entry): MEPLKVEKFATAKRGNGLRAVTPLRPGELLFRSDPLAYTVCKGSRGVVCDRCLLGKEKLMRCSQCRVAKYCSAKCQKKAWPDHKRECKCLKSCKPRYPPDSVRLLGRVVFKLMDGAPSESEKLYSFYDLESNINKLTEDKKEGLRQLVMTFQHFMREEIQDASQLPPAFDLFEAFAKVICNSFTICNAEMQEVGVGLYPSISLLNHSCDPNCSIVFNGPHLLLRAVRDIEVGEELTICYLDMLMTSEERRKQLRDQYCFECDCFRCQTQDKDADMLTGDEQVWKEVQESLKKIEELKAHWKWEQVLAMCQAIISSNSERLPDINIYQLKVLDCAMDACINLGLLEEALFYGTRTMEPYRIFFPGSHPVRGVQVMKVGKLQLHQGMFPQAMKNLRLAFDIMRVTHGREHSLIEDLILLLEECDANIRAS
Experiment: SMYD3 cell assay (Trimethyl-MEKK2 In-Cell Western in 293T/17 cells)
Type: cell-based
Conditions: read-out: SMYD3 Cell IC50 (μM)*
Structures can show the parent of a compound that is named as a salt.
Note the log scale: values are log10 of IC50 expressed in µM.

Use the examples below as a reference point.
[[record]]
compound = "C[C@@H]1C[C@H](NC(=O)c2cc(C3CC3)on2)CCN1C(=O)[C@H]1CC[C@H](N)CC1"
reported_property = "log10 IC50"
recorded_number = -0.02

[[record]]
compound = "CN[C@H]1CC[C@H](C(=O)N2CCC(NC(=O)c3cc(C4CC4)on3)C[C@H]2C)CC1 (stereo partly drawn)"
reported_property = "log10 IC50"
recorded_number = 0.35

[[record]]
compound = "CC[C@@H]1CC(NC(=O)c2cc(C3CC3)on2)CCN1C(=O)[C@H]1CC[C@H](N)CC1 (stereo partly drawn)"
reported_property = "log10 IC50"
recorded_number = -0.05

[[record]]
compound = "C[C@@H]1CN(C(=O)CC2CCNCC2)CC[C@@H]1NC(=O)c1cc(C2CC2)on1"
reported_property = "log10 IC50"
recorded_number = 0.51


log10 IC50 reported for this compound NCCCS(=O)(=O)N1C2CCCC1CC(NC(=O)c1cc(C3CC3)on1)C2 (stereo not drawn) [Cpd. No. 181, hydrochloride salt] : -0.25

log10 IC50 reported for this compound `C[C@H]1C[C@@H](NC(=O)c2cc(C3CC3)on2)CCN1S(=O)(=O)CCCN` : -0.08

log10 IC50 reported for this compound C[C@@H]1CC(NC(=O)c2cc(C3CC3)on2)CCN1C(=O)C12C3C4C1C1C2C3C41N (stereo partly drawn) : 0.12

log10 IC50 reported for this compound CC(C)C1CC(NC(=O)c2cc(C3CC3)on2)CCN1C(=O)[C@H]1CC[C@H](N)CC1 (stereo partly drawn) : 0.48

log10 IC50 reported for this compound C[C@H]1CN(S(=O)(=O)CCN)CCC1NC(=O)c1cc(C2CC2)on1 (stereo partly drawn) : 0.57
